Recorded values, source ChEMBL document CHEMBL5032522.

pIC50 listing for selected compounds.
# measurement target: Prostaglandin G/H synthase 2 (Homo sapiens, UniProt P35354)
# Sequence (P35354 whole entry): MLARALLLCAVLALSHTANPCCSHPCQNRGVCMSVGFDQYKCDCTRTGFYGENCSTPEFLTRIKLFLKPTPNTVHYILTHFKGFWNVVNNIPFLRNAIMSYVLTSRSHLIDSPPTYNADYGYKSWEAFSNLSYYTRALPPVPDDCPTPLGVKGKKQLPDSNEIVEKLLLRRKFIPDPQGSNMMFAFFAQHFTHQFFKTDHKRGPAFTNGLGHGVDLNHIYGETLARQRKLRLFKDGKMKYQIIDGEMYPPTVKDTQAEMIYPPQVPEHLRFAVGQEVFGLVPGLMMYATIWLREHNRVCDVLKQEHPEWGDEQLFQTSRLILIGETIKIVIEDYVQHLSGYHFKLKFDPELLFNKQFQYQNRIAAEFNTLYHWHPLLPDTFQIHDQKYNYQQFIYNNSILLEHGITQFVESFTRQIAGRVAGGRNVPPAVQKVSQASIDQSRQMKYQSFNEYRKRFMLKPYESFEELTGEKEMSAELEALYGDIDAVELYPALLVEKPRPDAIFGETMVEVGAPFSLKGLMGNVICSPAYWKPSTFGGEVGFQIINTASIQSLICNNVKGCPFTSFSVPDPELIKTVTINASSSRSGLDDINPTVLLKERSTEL
# test: Inhibition of human recombinant COX-2 using arachidonic acid as substrate preincubated 10 mins followed by substrate addition and measured after 2 mins by ELISA
API: returns pIC50 as number; meaning -log10 of concentration in mol/L.

Bench note: what pIC50 did COc1cc(NC(=O)c2ccccc2Nc2cccc(Cl)c2C)cc(OC)c1OC show?
3.93

Consider next the compound COc1ccc(NC(=O)c2ccccc2Nc2cccc(Cl)c2C)c(OC)c1 in the same way.
3.94

Consider next the compound COc1ccc(CNC(=O)c2ccccc2Nc2ccccc2)cc1 in the same way.
4.76
